Source listed as patent US10278957B2.

Target: UniProt:P35372
Sequence (P35372 whole entry): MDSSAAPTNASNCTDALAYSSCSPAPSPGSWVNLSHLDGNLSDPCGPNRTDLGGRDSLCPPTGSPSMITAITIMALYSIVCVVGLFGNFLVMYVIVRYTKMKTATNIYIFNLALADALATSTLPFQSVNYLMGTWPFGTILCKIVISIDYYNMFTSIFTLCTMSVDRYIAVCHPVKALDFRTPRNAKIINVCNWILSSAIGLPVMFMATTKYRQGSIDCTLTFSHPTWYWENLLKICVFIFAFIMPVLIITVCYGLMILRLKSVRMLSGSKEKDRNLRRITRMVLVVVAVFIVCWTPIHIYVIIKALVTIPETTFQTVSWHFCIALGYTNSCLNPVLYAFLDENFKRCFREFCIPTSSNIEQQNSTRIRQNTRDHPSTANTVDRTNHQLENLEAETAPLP
Assay: MOR agonist cAMP assay (HitHunter cAMP, forskolin-stimulated)
PROPERTY MEASURED: EC50

[[record]]
smiles_record = "CCCC[C@@H](C(=O)O)N(C)C(=O)C[C@H](Cc1ccc(I)cc1)NC(=O)CNC(=O)[C@@H](C)NC(=O)[C@@H](N)Cc1c(C)cc(C(N)=O)cc1C"
property_measured = "EC50"
recorded_measurement = "< 1 nM"

[[record]]
smiles_record = "Cc1cc(O)cc(C)c1C[C@H](N)C(=O)N[C@H](CC(=O)O)C(=O)NCC(=O)N[C@H](CC(=O)N(C)CC(N)=O)Cc1ccccc1"
property_measured = "EC50"
recorded_measurement = "< 1 nM"

[[record]]
smiles_record = "CC(=O)Nc1ccc(C[C@H](N)C(=O)N[C@H](C)C(=O)NCC(=O)N[C@H](CC(=O)N(C)CC(N)=O)Cc2ccccc2)cc1"
property_measured = "EC50"
recorded_measurement = "10 to 50 nM"


---

A collection of compounds and their measured EC50
Biological target: δ-opioid receptor (DOR) (Homo sapiens, UniProt P41143)
Sequence (P41143 whole entry): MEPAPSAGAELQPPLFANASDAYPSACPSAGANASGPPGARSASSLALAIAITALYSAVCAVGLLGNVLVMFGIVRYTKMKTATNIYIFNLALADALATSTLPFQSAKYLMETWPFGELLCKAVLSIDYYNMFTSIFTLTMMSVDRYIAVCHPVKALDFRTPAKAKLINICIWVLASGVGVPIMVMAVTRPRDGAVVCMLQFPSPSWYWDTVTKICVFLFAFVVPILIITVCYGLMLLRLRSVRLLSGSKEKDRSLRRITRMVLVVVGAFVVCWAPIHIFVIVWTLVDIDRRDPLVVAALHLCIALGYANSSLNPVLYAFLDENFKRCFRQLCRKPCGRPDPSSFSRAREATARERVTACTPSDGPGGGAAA
Assay: DOR agonist cAMP assay (HitHunter cAMP, forskolin-stimulated)
Square brackets hold non-standard residues; d marks the D form. Peptide text beside a SMILES is read from it. Dmt = Cc1cc(O)cc(C)c1C[C@H](N)C(=O)O; dNMeA = CN[C@H](C)C(=O)O; Sar = CNCC(=O)O
PROPERTY MEASURED: EC50

[[record]]
compound = "C[C@@H](NC(=O)[C@@H](N)Cc1ccc(O)c(C(C)(C)C)c1)C(=O)NCC(=O)N[C@H](CC(=O)N(C)CC(N)=O)Cc1ccccc1 [compound 52]"
target_entity = "δ-opioid receptor (DOR) (Homo sapiens, UniProt P41143)"
property_measured = "EC50"
recorded_measurement = "> 200 nM"

[[record]]
compound = "Cc1cc(O)cc(C)c1C[C@H](N)C(=O)N(C)[C@H](C)C(=O)N[C@@H](Cc1ccccc1)C(=O)N(C)CC(N)=O [compound 10] (H-[Dmt][dNMeA]F[Sar]-NH2)"
target_entity = "δ-opioid receptor (DOR) (Homo sapiens, UniProt P41143)"
property_measured = "EC50"
recorded_measurement = "1 to 10 nM"

[[record]]
compound = "CC[C@H](C)[C@@H](C(=O)O)N(C)C(=O)C[C@H](Cc1ccccc1)NC(=O)CNC(=O)[C@H](NC(=O)[C@@H](N)Cc1c(C)cc(O)cc1C)[C@H](C)O [compound 182]"
target_entity = "δ-opioid receptor (DOR) (Homo sapiens, UniProt P41143)"
property_measured = "EC50"
recorded_measurement = "< 1 nM"

[[record]]
compound = "Cc1cc(C(N)=O)cc(C)c1C[C@H](N)C(=O)N[C@@H](C(=O)NCC(=O)N[C@H](CC(=O)N(C)CC(N)=O)Cc1ccccc1)[C@H](C)O [compound 76]"
target_entity = "δ-opioid receptor (DOR) (Homo sapiens, UniProt P41143)"
property_measured = "EC50"
recorded_measurement = "< 1 nM"

[[record]]
compound = "Cc1cc(C(N)=O)cc(C)c1C[C@H](N)C(=O)N(C)[C@@H](CCCNC(=N)N)C(=O)NCC(=O)N[C@H](CC(=O)N(C)CC(N)=O)Cc1ccccc1 [compound 78]"
target_entity = "δ-opioid receptor (DOR) (Homo sapiens, UniProt P41143)"
property_measured = "EC50"
recorded_measurement = "50 to 200 nM"


---

Target: δ-opioid receptor (DOR) (Homo sapiens, UniProt P41143)
Experiment: DOR agonist cAMP assay (HitHunter cAMP, forskolin-stimulated)
Square brackets hold non-standard residues; d marks the D form. Peptide text beside a SMILES is read from it. Phe(3,4-(OMe)2) = COc1ccc(C[C@H](N)C(=O)O)cc1OC; Dmt = Cc1cc(O)cc(C)c1C[C@H](N)C(=O)O
A collection of molecules and their measured EC50
PROPERTY MEASURED: EC50

[[record]]
molecule = "C[C@@H](NC(=O)[C@H](N)Cc1ccc(O)cc1)C(=O)NCC(=O)N[C@H](CC(=O)N(C)CC(N)=O)Cc1ccccc1"
recorded_measurement = "> 200 nM"

[[record]]
molecule = "Cc1cc(O)cc(C)c1C[C@H](N)C(=O)N[C@H](Cc1ccc(O)cc1)C(=O)NCC(=O)N[C@H](CC(=O)N(C)CC(N)=O)Cc1ccccc1"
recorded_measurement = "< 1 nM"

[[record]]
molecule = "Cc1cc(O)cc(C)c1C[C@H](N)C(=O)N[C@H](C)C(=O)NC(C)(C)C(=O)N[C@H](CC(=O)N(C)CC(N)=O)Cc1ccccc1"
recorded_measurement = "< 1 nM"

[[record]]
molecule = "CC[C@H](C)[C@@H](C(=O)O)N(C)C(=O)C[C@H](Cc1ccccc1)NC(=O)CNC(=O)[C@@H](C)NC(=O)[C@@H](N)Cc1c(C)cc(O)cc1C"
recorded_measurement = "< 1 nM"

[[record]]
molecule = "Cc1cc(C(N)=O)cc(C)c1C[C@H](N)C(=O)NC(C)(C)C(=O)NCC(=O)N[C@H](CC(=O)N(C)CC(N)=O)Cc1ccccc1"
recorded_measurement = "10 to 50 nM"

[[record]]
molecule = "Cc1cc(O)cc(C)c1C[C@H](N)C(=O)NC(C)(C)C(=O)NCC(=O)N[C@H](CC(=O)N(C)CC(N)=O)Cc1ccccc1"
recorded_measurement = "1 to 10 nM"

[[record]]
molecule = "COc1ccc(C[C@H](NC(=O)[C@H](Cc2ccccc2)NC(=O)[C@@H](CCCNC(=N)N)NC(=O)[C@@H](N)Cc2c(C)cc(O)cc2C)C(N)=O)cc1OC [compound 17] (H-[Dmt][dR]F[Phe(3,4-(OMe)2)]-NH2)"
recorded_measurement = "1 to 10 nM"


---

Assay: SIF assay (stability in simulated intestinal fluid)
Type: in vitro ADME
Conditions: simulated intestinal fluid (SIF) with pancreatin; simulated intestinal fluid, pH 6.8, pancreatin, 37° C., 20 μM
A collection of compounds and their measured half-life at 20 μM
PROPERTY MEASURED: half-life at 20 μM

[[record]]
smiles_record = "Cc1cc(O)cc(C)c1C[C@H](N)C(=O)N[C@H](C)C(=O)NCC(=O)N[C@H](CC(=O)N(CCC(C)C)CC(N)=O)Cc1ccccc1"
recorded_measurement = "> 24 h"

[[record]]
smiles_record = "Cc1cc(O)cc(C)c1C[C@H](N)C(=O)N[C@H](C)C(=O)NCC(=O)N[C@H](CC(=O)N(CC(N)=O)Cc1ccccc1)Cc1ccccc1"
recorded_measurement = "> 24 h"

[[record]]
smiles_record = "Cc1cc(C(N)=O)cc(C)c1C[C@H](N)C(=O)N[C@H](C)C(=O)NCC(=O)N[C@H](CC(=O)N(C)[C@@H](C)C(=O)O)Cc1ccccc1"
recorded_measurement = "> 24 h"

[[record]]
smiles_record = "Cc1cc(C(N)=O)cc(C)c1C[C@H](N)C(=O)N[C@H](C)C(=O)NCC(=O)N[C@H](CC(=O)N(C)CC(N)=O)Cc1ccccc1"
recorded_measurement = "> 24 h"

